Assay: Study B: drug interaction PK with rifampin
Format: in vivo, human
Settings: human, plasma, oral, 100 mg, ubrogepant 100 mg alone; read-out: AUC0-∞, mean (SD)
endpoint name: AUC(0-inf) (ng·h/mL)
Hi! Could you send only the number? It should be in ng·h/mL, unit omitted.

// AUC(0-inf) value for C[C@@H]1[C@H](c2ccccc2)C[C@H](NC(=O)c2cnc3c(c2)C[C@@]2(C3)C(=O)Nc3ncccc32)C(=O)N1CC(F)(F)F : 1910

====

Test: Phase 1 hepatic impairment PK study, single 100 mg dose
Assay type: in vivo, human
Conditions: both sexes, human, plasma, po, 100 mg, 100 mg single oral dose; severe hepatic impairment; read-out: AUC0-inf, mean ±SD
endpoint name: AUC(0-inf) (ng·h/mL)
Numbers only; they are read as ng·h/mL.

Briefly, AUC(0-inf) measured for C[C@@H]1[C@H](c2ccccc2)C[C@H](NC(=O)c2cnc3c(c2)C[C@@]2(C3)C(=O)Nc3ncccc32)C(=O)N1CC(F)(F)F : 3330
